All values here come from paper PMC8511391.

- assayed_system: Kv1.3 (Homo sapiens, UniProt P22001)
- Sequence (P22001 whole entry): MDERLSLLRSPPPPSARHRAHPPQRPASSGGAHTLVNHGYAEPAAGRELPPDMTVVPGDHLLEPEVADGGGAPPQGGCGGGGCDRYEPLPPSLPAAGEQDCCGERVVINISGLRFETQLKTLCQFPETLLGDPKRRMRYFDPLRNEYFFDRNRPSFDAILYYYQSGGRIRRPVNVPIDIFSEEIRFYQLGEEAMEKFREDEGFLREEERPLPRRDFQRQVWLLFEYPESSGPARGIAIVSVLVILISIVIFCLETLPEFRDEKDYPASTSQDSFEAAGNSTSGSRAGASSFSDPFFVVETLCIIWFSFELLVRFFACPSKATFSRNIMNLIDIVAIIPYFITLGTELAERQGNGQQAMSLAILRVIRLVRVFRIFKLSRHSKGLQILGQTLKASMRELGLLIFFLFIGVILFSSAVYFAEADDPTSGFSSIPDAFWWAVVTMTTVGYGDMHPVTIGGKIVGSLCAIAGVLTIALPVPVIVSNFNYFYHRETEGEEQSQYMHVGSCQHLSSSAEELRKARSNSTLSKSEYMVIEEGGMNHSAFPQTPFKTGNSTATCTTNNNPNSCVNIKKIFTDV
- assay_explanation: patch-clamp dose-response
Ends that are not written are not given here.
I'd be grateful if you could share measured Kd for these entries.
Answers are plain numbers, in nM.

What Kd value was documented for this binder, {Glu-Phe-H2N-H2N-H2N-H2N-H2N-H2N}-LQIEGRTIINVKCTSPKQCLPPCKAQFGQSAGAKCMNGKCKCYPH (not fully specified; ends and bridges not checked) [Margatoxin (TrMgTx)] ?
0.086

# context switch: different binder, same Kd
What Kd value was documented for this binder, TIINVKCTSPKQCLPPCKAQFGQSAGAKCMNGKCKCYPH [Margatoxin (UrMgTx)] ?
0.05
